# testSystem: Torsin-1A-interacting protein 1 (Homo sapiens)
# measurementProtocol: compound microarray binding of lysate hLAP1 – cell lysate, small-molecule microarray, COS7 lysate, 635/667 nm fluorescence, primary screen (AID 1116)
# details: 635 nm fluorescence, higher = more signal
valueKind: composite z-score
Numbers only.

Known composite z-score results, listed for orientation:
compound | composite z-score
Cc1ccc(S[C@]2(C(=O)O)CC(=O)N(C(C)C)[C@@H]2c2ccc(CO)cc2)cc1 | 1.42
CN(C)CCCC[C@@H]1NC(=O)[C@H]2C[C@@H](C(=O)NCCCCCN)[C@@H](c3cccc(OCCO)c3)N2C1=O | 2.53

Would you mind giving composite z-score for every compound in the list below?
1. CCOC(=O)C[C@H]1[C@H](OC(=O)c2ccc(C(=O)c3ccccc3)cc2)[C@@H](NC(=O)Cc2ccc(OC)cc2)c2cc(OCCCO)ccc2N1C(=O)c1ccc2ccccc2n1
2. O=C(CS)NCCCCCNC(=O)[C@@H]1C[C@@H]2C(=O)NCC(=O)N2[C@@H]1c1ccc(O)cc1
3. CC(C)NC(=O)[C@@H]1c2ccccc2C(=O)N(C(C)C)[C@H]1c1ccc(CO)cc1
4. COCCCNC(=O)[C@@]1(Cc2ccccc2CN=[N+]=[N-])N=C(c2ccc(OCCCO)cc2)O[C@H]1c1ccccc1CN=[N+]=[N-]
5. COC(=O)c1c(CC[C@@H](CO)NC(=O)N[C@H](Cc2ccccc2)Cn2cc(-c3ccccn3)nn2)oc(C(C)=O)c1C(=O)OC
6. COCCCNC(=O)[C@@]1(Sc2ccc(C)cc2)CC(=O)N(Cc2ccccc2Cl)[C@@H]1c1ccc(CO)cc1
7. CC(C)CN1C(=O)[C@@]2(c3ccc([N+](=O)[O-])cc3)CC(=O)N(C3CCCCC3)[C@@H]2c2ccc(CO)cc21
8. COCCOC(=O)N1C(=O)[C@@]2(c3ccccc31)[C@H](C(=O)N1CCCCCCC1)[C@H]1C(=O)O[C@H](c3ccccc3)[C@H](c3ccccc3)N1[C@@H]2c1ccc(OCCO)cc1

# output
1: 0.566; 2: -0.0104; 3: 1.69; 4: 0.852; 5: 1.79; 6: 0.566; 7: -0.803; 8: 5.73

Would you mind giving composite z-score for every compound in the list below?
1. CCOC(=O)C[C@H]1[C@H](OC(=O)c2ccc(-c3ccccc3)cc2)[C@@H](NC(=O)c2ccccc2)c2cc(OCCCO)ccc2N1C(=O)c1ccc2ccccc2n1
2. OCC1C=C(/C=C/c2ccccc2)CN1Cc1ccccc1Br (stereo not given)
3. O=C(O)[C@@]1(CCS(=O)(=O)c2ccccc2)N=C(c2ccc(OCCCO)cc2)O[C@H]1c1ccccc1
4. CC[C@@H]1C=C(C(=O)O)[C@H](c2ccc(C)cc2)N1S(=O)(=O)c1ccc(C)cc1
5. CCOC(=O)C[C@H]1[C@H](OC(=O)c2ccc(C(=O)c3ccccc3)cc2)[C@@H](NC(=O)c2ccccc2)c2cc(OCCCO)ccc2N1C(=O)c1ccccc1

# output
1: 0.629; 2: 0.289; 3: 1.08; 4: 0.24; 5: 0.63

* * *

# System: XIP peptide (Xip251-270) binding
# measurementProtocol: XIP fragment 251-270 binding compounds – biochemical, small-molecule microarray, fluorescence 635/667 nm, 0.1 µg/mL protein, primary screen (AID 1182)
# details: fluorescent protein binding, 635 nm, higher = more signal, called active from +8 up or from −8 down
The source made the active and inactive calls.
valueKind: composite z-score

Known composite z-score results, listed for orientation:
compound | valueKind | value
CC(C)OC(=O)C=C1C[C@@H](c2cccc(Cl)c2)O[C@@H](c2cccc(Cl)c2)O1 | composite z-score | 0.262 (inactive)
COC(=O)C[C@H]1O[C@@H](CCc2ccccc2)[C@@H](C)[C@@H]1[Si](C)(C)c1ccc(OC)cc1 | composite z-score | -0.633 (inactive)
COC(=O)[C@]1(CCC(=O)OC(C)(C)C)N=C(c2ccc(OCCCO)cc2)O[C@@H]1c1ccccc1 | composite z-score | 1.87 (inactive)
COc1ccc([Si](C)(C)[C@H]2[C@H](CCn3cc([C@H](O)c4ccccc4)nn3)O[C@@]3(C(=O)N(C)c4ccccc43)[C@@H]2C)cc1 | composite z-score | 0.014 (inactive)
COc1ccc(C(O)C2C=CC3C(=O)N(C)C(=O)C3N2NC(=O)OC(C)(C)C)c2ccccc12 (centres undefined) | composite z-score | 0.661 (inactive)

Would you mind giving composite z-score for every compound in the list below?
1. CCOC(=O)C1=CC[C@H]2C(=O)N(c3ccccc3)C(=O)[C@@H]12
2. COC(=O)[C@@]1(Cc2ccccc2)[C@H]2c3cc(C(=O)N4CCCC4)n(Cc4ccc(O)c(OC)c4)c3C[C@H]2CN1C(=O)c1ccccc1
3. O=C1C2C=CC(C(O)c3ccc(-c4ccccc4)s3)N(Nc3ccccc3)C2C(=O)N1c1ccccc1 (centres undefined)
4. CCOC(=O)[C@H]1C/C=C/C[C@H](C(=O)OCC)C(=O)O[C@H]2[C@@H](OC)O[C@H](CO)[C@@H](OC(=O)c3ccc(Br)cc3)[C@@H]2OC1=O
5. COCCCNC(=O)[C@@]1(Cc2ccccc2CN=[N+]=[N-])N=C(c2ccc(OCCCO)cc2)O[C@H]1c1ccccc1CN=[N+]=[N-]
6. COCCOC(=O)N1C(=O)[C@@]2(c3cc(C#Cc4ccc(OC)cc4)ccc31)[C@H](c1ccc(O)cc1)N1[C@H](c3ccccc3)[C@H](c3ccccc3)OC(=O)[C@H]1[C@@H]2C(=O)Nc1nc2ccccc2s1
7. C[C@H]1C2[C@H](Cc3ccccc3)NC(=O)[C@]23C(=O)NCC(=O)N2CCC[C@H]2C(=O)NC/C=C/CCC/C=C/C3[C@@H]2O[C@]12C (some centres undefined)
8. NC(=O)[C@@]1(Cc2ccccc2)N=C(c2ccc(OCCCO)cc2)O[C@H]1c1ccccc1

# output
0.571 (inactive)
0.469 (inactive)
0.57 (inactive)
0.146 (inactive)
1.01 (inactive)
0.691 (inactive)
-0.416 (inactive)
1.08 (inactive)

Would you mind giving composite z-score for every compound in the list below?
1. O=C1O[C@H](c2ccccc2)[C@H](c2ccccc2)N2[C@H]1[C@@H](C(=O)NC[C@H](O)c1ccccc1)[C@]1(C(=O)Nc3ccccc31)[C@H]2c1ccc(O)cc1
2. CC(CO)N1C(=O)[C@@H]2C3C(=O)OCCC/C=C\[C@H]3OC23C=CCN(CCN2CCOCC2)C(=O)[C@@H]13 (some centres undefined)
3. CN(C)CCCCCCNC(=O)[C@@H]1C[C@@H]2C(=O)N3CCC[C@H]3C(=O)N2[C@@H]1c1ccc(O)cc1
4. CCN(CC)c1ccc(N2CC=CC34O[C@@H]5/C=C\CCC(C)OC(=O)C5[C@H]3C(=O)N(CCCCCO)[C@@H]4C2=O)cc1 (some centres undefined)
5. [N-]=[N+]=Nc1ccccc1C[C@]1(C(=O)NCc2ccccc2)N=C(c2ccc(OCCCO)cc2)O[C@H]1c1ccccc1N=[N+]=[N-]

# output
1: 1.5 (inactive); 2: -0.134 (inactive); 3: 2.98 (inactive); 4: -0.474 (inactive); 5: -0.12 (inactive)

* * *

# measurementProtocol: S6 kinase pathway phospho-S6 level changes – cell-based, A549, cytoblot, luminescence, serum-stimulated, primary screen (AID 1158);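 further: serum-stimulated A549 lung adenocarcinoma cells; signal is phosphorylated S6 detected by cytoblot immunostaining with HRP secondary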
# details: 5 h, higher = more signal
Assign Condition met to entries whose z-score meets or exceeds -0.09; assign Condition not met to the rest.

Answered cases to consult:
compound | classLabel
CCCC(=O)N(CCc1c[nH]c2ccccc12)[C@@H]1CC(C(=O)NCCO)=C[C@H](Oc2c(I)cc(CO)cc2OC)[C@H]1O | Condition met
C[N+](C)(C)CCCCCCNC(=O)[C@H]1C[C@H]2C(=O)N[C@@H](Cc3ccccc3)C(=O)N2[C@H]1c1cccc(OCCO)c1 | Condition not met
O=C1OCCC=C[C@H]2OC34C=CCN(c5ccc(Cl)cc5)C(=O)[C@H]3N(CCCO)C(=O)[C@@H]4C12 (some centres not stated) | Condition met
CN(C)CCCC[C@@H]1NC(=O)[C@H]2C[C@@H](C(=O)NCCCCCN)[C@@H](c3cccc(OCCO)c3)N2C1=O | Condition met
CC(c1ccccc1)C(O)C1C=CC2C(=O)N(C)C(=O)C2N1NC(=O)OC(C)(C)C (configuration not stated) | Condition not met

# input Has [N-]=[N+]=NCc1ccccc1[C@H]1OC(c2ccc(OCCCO)cc2)=N[C@@]1(Cc1ccccc1)C(=O)N1CCCCC1 a recorded z-score greater than or equal to -0.09?
# output Condition met

# input Has CC1CC/C=C\[C@H]2OC34C=CCN(Cc5ccccc5)C(=O)[C@H]3N(C(C)CO)C(=O)[C@@H]4C2C(=O)O1 (some centres not stated) a recorded z-score greater than or equal to -0.09?
# output Condition met

# input Has [N-]=[N+]=NCc1ccccc1[C@@H]1OC(c2ccc(OCCCO)cc2)=N[C@]1(CCS(=O)(=O)c1ccccc1)C(=O)N1CCCCC1 a recorded z-score greater than or equal to -0.09?
# output Condition met

# input Has N#Cc1ccc(C(O)C2C=CC3C(=O)N(c4ccccc4)C(=O)C3N2Nc2ccccc2F)cc1 (configuration not stated) a recorded z-score greater than or equal to -0.09?
# output Condition met

# input Has O=c1cccc(-c2ccccc2Cl)o1 a recorded z-score greater than or equal to -0.09?
# output Condition not met

# input Has O=C(CS)NCCCCCNC(=O)[C@H]1C[C@H]2C(=O)NCC(=O)N2[C@H]1c1ccc(O)cc1 a recorded z-score greater than or equal to -0.09?
# output Condition not met

# input Has CCCC1(C(=O)OC)C=C2C(=C(c3ccccc3)C(=O)C2C)CN1 (configuration not stated) a recorded z-score greater than or equal to -0.09?
# output Condition not met
